# test.description: Half life of the compound
# Format: ADME
property.label: half-life

Request: Can you share its half-life? I mean this compound: Cc1cn([C@H]2C[C@H](N=[N+]=[N-])[C@@H](CO)O2)c(=O)[nH]c1=O [ZIDOVUDINE]
Result: 32.4 min

* * *

# test.description: in vivo
# run.conditions: serum
property.label: log10 of AUC (log10 of the value in ng·h/mL)
On a log10 scale: recorded AUC, unit ng·h/mL.

Recorded log10 of AUC, per entry:
compound	log10 of AUC
C[n+]1cccc(C(=O)OC[C@H]2O[C@@H](n3ccc(=O)[nH]c3=O)C[C@@H]2N=[N+]=[N-])c1.[I-]	3.08
Cc1cn([C@H]2C[C@H](N=[N+]=[N-])[C@@H](COC(=O)c3ccc[n+](C)c3)O2)c(=O)[nH]c1=O.[I-]	2.78
[N-]=[N+]=N[C@H]1C[C@H](n2ccc(=O)[nH]c2=O)O[C@@H]1CO (stereo in doubt; form 2)	4.41
Cc1cn([C@H]2C[C@H](N=[N+]=[N-])[C@@H](CO)O2)c(=O)[nH]c1=O	4.42

Request: # lookup: log10 of AUC of Cc1cn([C@H]2C[C@H](N=[N+]=[N-])[C@@H](COC(=O)C3=CN(C)C=CC3)O2)c(=O)[nH]c1=O
Result: 3.10

Request: Please give the result for CN1C=CCC(C(=O)OC[C@H]2O[C@@H](n3ccc(=O)[nH]c3=O)C[C@@H]2N=[N+]=[N-])=C1 too.
Result: 3.65
